The measured values listed here are drawn from paper PMC6940790.

So I've got a bunch of proteins here, and I need their Km values.
Substrate: O=[N+]([O-])c1ccc(O[C@@H]2O[C@H](CO)[C@@H](O)[C@H](O)[C@H]2O)cc1
Assay: purified protein
Settings: pH 10.0, glycine-NaOH, 30 °C
Give bare numbers, in µM.

A selection of reference data follows.
Entry Bgl1D (uncultured microorganism) (protein) MSLFFTFNPLEIVPTRVIGVPNHYQNYSWCNFQNGDYPFIDGIDINLIYQVKVGIPIVVRLETVATIFNILIPHLSESERDYIKRVYDYLRLDGRTSQSSYFFGPVDSQKIGLILRKYFFEWSSQMTYECLSGKVRGIAAPDKLVSEMNEIYNELMKVFNGDVSNIVNIGVN — recorded Km = 540

# protein Bgl1D (uncultured microorganism; L115N/S28T) (protein) MSLFFTFNPLEIVPTRVIGVPNHYQNYTWCNFQNGDYPFIDGIDINLIYQVKVGIPIVVRLETVATIFNILIPHLSESERDYIKRVYDYLRLDGRTSQSSYFFGPVDSQKIGLINRKYFFEWSSQMTYECLSGKVRGIAAPDKLVSEMNEIYNELMKVFNGDVSNIVNIGVN ; its Km = 1010

What the record says about Bgl1D (uncultured microorganism; E154G/I57K/S28P) (protein) MSLFFTFNPLEIVPTRVIGVPNHYQNYPWCNFQNGDYPFIDGIDINLIYQVKVGIPKVVRLETVATIFNILIPHLSESERDYIKRVYDYLRLDGRTSQSSYFFGPVDSQKIGLILRKYFFEWSSQMTYECLSGKVRGIAAPDKLVSEMNEIYNGLMKVFNGDVSNIVNIGVN : Km is 1170

Km reported for this protein Bgl1D (uncultured microorganism; F68L/I70M) (protein) MSLFFTFNPLEIVPTRVIGVPNHYQNYSWCNFQNGDYPFIDGIDINLIYQVKVGIPIVVRLETVATILNMLIPHLSESERDYIKRVYDYLRLDGRTSQSSYFFGPVDSQKIGLILRKYFFEWSSQMTYECLSGKVRGIAAPDKLVSEMNEIYNELMKVFNGDVSNIVNIGVN : 530

Next item in the queue.
Recorded result, Bgl1D (uncultured microorganism; D44E/F68L/I70M/R91G/Y37H) (protein) MSLFFTFNPLEIVPTRVIGVPNHYQNYSWCNFQNGDHPFIDGIEINLIYQVKVGIPIVVRLETVATILNMLIPHLSESERDYIKRVYDYLGLDGRTSQSSYFFGPVDSQKIGLILRKYFFEWSSQMTYECLSGKVRGIAAPDKLVSEMNEIYNELMKVFNGDVSNIVNIGVN , Km: 470
